Documented Inhibitory Rate (%) across a set of compounds
# System: α-glucosidase
# ASSAY_NOTES: In vitro α-glucosidase inhibition assay (pNPG substrate)
# Format: biochemical
# CONDITION_SUMMARY: percent inhibition at a concentration of 50 μM; mean ± SD (n = 3)
Marks after values point to notes of the source that are not given here.

Challenge: Quick one: give measured Inhibitory Rate (%) for COC(=O)C1OC(OC2CCC3(C)C(CCC4(C)C3CC=C3C5CC(C)(C)CCC5(C(=O)OC5OC(CO)C(O)C(O)C5O)CCC34C)C2(C)C)C(O)C(OC2OCC(O)C(O)C2O)C1O (centres unmarked) [Compound 8, momordin IIc 6’-methyl ester]
Response given: 57.02 ± 36.3 ^e %

Challenge: Annotate the compound CC1(C)CCC2(C(=O)OC3OC(CO)C(O)C(O)C3O)CCC3(C)C(=CCC4C5(C)CC(O)C(O)C(C)(C)C5CCC43C)C2C1 (centres unmarked) [Compound 3] with its measured Inhibitory Rate (%).
Response given: 59.79 ± 1.04 ^d %

Challenge: Supply recorded Inhibitory Rate (%) for CC1(C)CCC2(C(=O)OC3OC(CO)C(O)C(O)C3O)CCC3(C)C(=CCC4C5(C)CCC(O)C(C)(C)C5CCC43C)C2C1 (centres unmarked) [Compound 12] here.
Response given: 41.48 ± 1.66 ^g %

Challenge: Consider the compound CC1(C)CCC2(C(=O)OC3OC(CO)C(O)C(O)C3O)CCC3(C)C(=CCC4C5(C)CCC(OC6OC(C(=O)O)C(O)C(OC7OCC(O)C(O)C7O)C6OC6OC(CO)C(O)C(O)C6O)C(C)(C)C5CCC43C)C2C1 [Compound 9, 2’-O-β-D-glucopyranosyl momordin IIc] and give its recorded Inhibitory Rate (%).
Response given: 74.41 ± 1.02 ^b %

Challenge: For the compound CCOC(=O)C1OC(OC2CCC3(C)C(CCC4(C)C3CC=C3C5CC(C)(C)CCC5(C(=O)O)CCC34C)C2(C)C)C(O)C(OC2OCC(O)C(O)C2O)C1O (centres unmarked) [Compound 6, momordin Ic ethyl ester] , give its measured Inhibitory Rate (%) value.
Response given: 35.00 ± 0.40 ^h %
